# System: NCI-H2087
# Assay: relative viability (nuclei count vs DMSO), 5 days (fraction); higher = more cells survive
# Applied conditions: first compound 0.253 µM

Molecule	relative viability
Oc1nc(-c2ccc(C(F)(F)F)cc2)nc2c1CSCC2 [XAV939] + N=C(N)NC(=N)NCCc1ccccc1 [Phenformin] (partner 250 µM)	0.455
Oc1nc(-c2ccc(C(F)(F)F)cc2)nc2c1CSCC2 [XAV939] + COc1cccc2cc(-c3nc([C@H]4CC[C@H](C(=O)O)CC4)n4ncnc(N)c34)[nH]c12 [OSI-027] (partner 0.5 µM)	0.504
Oc1nc(-c2ccc(C(F)(F)F)cc2)nc2c1CSCC2 [XAV939] + CC1(C)CCC(c2ccc(Cl)cc2)=C(CN2CCN(c3ccc(C(=O)NS(=O)(=O)c4ccc(N[C@H](CCN5CCOCC5)CSc5ccccc5)c(S(=O)(=O)C(F)(F)F)c4)cc3)CC2)C1 [Navitoclax] (partner 0.5 µM)	0.668
C=C1C(=O)O[C@@H](CCCCCCCC)[C@@H]1C(=O)O [C-75] + CS(=O)(=O)CCNCc1ccc(-c2ccc3ncnc(Nc4ccc(OCc5cccc(F)c5)c(Cl)c4)c3c2)o1 [Lapatinib] (partner 2 µM)	0.975
C=C1C(=O)O[C@@H](CCCCCCCC)[C@@H]1C(=O)O [C-75] + COc1cccc2cc(-c3nc([C@H]4CC[C@H](C(=O)O)CC4)n4ncnc(N)c34)[nH]c12 [OSI-027] (partner 0.5 µM)	0.807

###

# Test system: SW 1573
# Assay: relative viability (nuclei count vs DMSO), 5 days (fraction); higher = more cells survive
# Applied conditions: first compound 1.265 µM
Observed property: relative viability

Compound	Test result
O=C(O)c1ccc(-c2c[nH]c3ncc(-c4ccccc4)cc23)cc1C1CCCC1 + C[C@@H](Oc1cc(-c2cnn(C3CCNCC3)c2)cnc1N)c1c(Cl)ccc(F)c1Cl [Crizotinib] (partner 1 µM)	0.925
O=C(O)c1ccc(-c2c[nH]c3ncc(-c4ccccc4)cc23)cc1C1CCCC1 + COc1cccc2cc(-c3nc([C@H]4CC[C@H](C(=O)O)CC4)n4ncnc(N)c34)[nH]c12 [OSI-027] (partner 0.5 µM)	0.447
O=C(O)c1ccc(-c2c[nH]c3ncc(-c4ccccc4)cc23)cc1C1CCCC1 + CC(=O)Nc1cccc(-n2c(=O)n(C3CC3)c(=O)c3c(Nc4ccc(I)cc4F)n(C)c(=O)c(C)c32)c1 [Trametinib] (partner 0.02 µM)	0.365
O=C(O)c1ccc(-c2c[nH]c3ncc(-c4ccccc4)cc23)cc1C1CCCC1 + CC1(C)CCC(c2ccc(Cl)cc2)=C(CN2CCN(c3ccc(C(=O)NS(=O)(=O)c4ccc(N[C@H](CCN5CCOCC5)CSc5ccccc5)c(S(=O)(=O)C(F)(F)F)c4)cc3)CC2)C1 [Navitoclax] (partner 0.5 µM)	0.619
O=C(O)c1ccc(-c2c[nH]c3ncc(-c4ccccc4)cc23)cc1C1CCCC1 + CCNC(=O)c1noc(-c2cc(C(C)C)c(O)cc2O)c1-c1ccc(CN2CCOCC2)cc1 [Luminespib] (partner 0.01 µM)	0.383

###

# Test system: ChaGo-K-1
# Assay: relative viability (nuclei count vs DMSO), 5 days (fraction); higher = more cells survive
# Applied conditions: first compound 0.4 µM

Molecule	Target desc	relative viability
O=C(O)c1ccc(-c2c[nH]c3ncc(-c4ccccc4)cc23)cc1C1CCCC1 + Cc1nc(Nc2ncc(C(=O)Nc3c(C)cccc3Cl)s2)cc(N2CCN(CCO)CC2)n1 [Dasatinib] (partner 0.075 µM)	ChaGo-K-1	0.518
O=C(O)c1ccc(-c2c[nH]c3ncc(-c4ccccc4)cc23)cc1C1CCCC1 + Nc1nc2[nH]cc(CCc3ccc(C(=O)N[C@@H](CCC(=O)O)C(=O)O)cc3)c2c(=O)[nH]1 [Pemetrexed] (partner 0.2 µM)	ChaGo-K-1	0.265
O=C(O)c1ccc(-c2c[nH]c3ncc(-c4ccccc4)cc23)cc1C1CCCC1 + COc1cccc2cc(-c3nc([C@H]4CC[C@H](C(=O)O)CC4)n4ncnc(N)c34)[nH]c12 [OSI-027] (partner 0.5 µM)	ChaGo-K-1	0.532
O=C(O)c1ccc(-c2c[nH]c3ncc(-c4ccccc4)cc23)cc1C1CCCC1 + CC1(C)CCC(c2ccc(Cl)cc2)=C(CN2CCN(c3ccc(C(=O)NS(=O)(=O)c4ccc(N[C@H](CCN5CCOCC5)CSc5ccccc5)c(S(=O)(=O)C(F)(F)F)c4)cc3)CC2)C1 [Navitoclax] (partner 0.5 µM)	ChaGo-K-1	0.888
O=C(O)c1ccc(-c2c[nH]c3ncc(-c4ccccc4)cc23)cc1C1CCCC1 + N=C(N)NC(=N)NCCc1ccccc1 [Phenformin] (partner 250 µM)	ChaGo-K-1	0.452

Data provenance is the supplement of paper PMC10307832.
